Listed below: side scatter shift values for each entry.
assay: LNCaP granularity increase inducers, single-point recheck – cell-based, side scatter shift, flow cytometry, confirmation (AID 1069); conditions: LNCaP differentiation, 4 d, at 100 µM, stronger effect = higher value;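 also: LNCaP human prostate cancer cells in low-serum medium with charcoal-stripped FBS; percent of cells with raised granularity gated so DMSO controls show 10%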
endpoint-label: side scatter shift (%)

> print(dat)
                                    compound  result
 1  CCCCOC(=O)CSc1nc2c(cc1C#N)C(=O)CC(C)(C)C2    16.3
 2  N#C/C(=C\c1ccc(O)c(O)c1)C(=O)NCCCc1ccccc1    28.9
 3  Cc1oc(-c2ccc(Cl)cc2)nc1CN1CCCC(C(=O)N2CCN(C(=O)c3ccco3)CC2)C1 (stereo not drawn)    42.1
 4  CCSc1nnc(Cn2c(=O)sc3ccccc32)n1-c1ccccc1C    20.5
 5  CCN1C=C(Cc2cccs2)C2=C(C1)C(c1cccs1)C(C#N)=C(N)O2 (stereo not drawn)      20
 6  O=C(NCCCN1CCN(c2ccccc2F)CC1)C1CCC(=O)N1C1CCCCC1 (stereo not drawn)       8
 7  Cn1c(=O)[nH]c(=O)c2c1nc(Br)n2CCCSc1nc2ccccc2o1       0
 8  COc1ccc(-c2ccc(-c3noc(-c4ccccc4)n3)c(OC)n2)cc1    56.7
 9  CCc1ccc(-c2nc(CN3CCCC(C(=O)O)C3)c(C)o2)cc1 (stereo not drawn)    12.4
10  Cc1cc(=O)n2nc(N3CCCC3C(=O)NCc3ccccn3)sc2n1 (stereo not drawn)       4
11  CC1=C(n2nnc3ccccc32)C(c2ccccc2)C(C#N)=C(N)O1 (stereo not drawn)      26
12  O=C(CCNC(=O)Cn1ccc2ccccc2c1=O)NCCCN1CCN(c2ccc(F)cc2)CC1    21.8
13  Cc1cccc(-c2nc(CN3CCCC(C(=O)NC4CCCCCC4)C3)c(C)o2)c1 (stereo not drawn)    41.2
14  COC(=O)c1cc(-c2ccccc2)sc1NC(=O)c1cc(C)on1      70
15  COc1ccc(N2CCN(CCCNC(=O)C3(S(=O)(=O)c4ccc(Cl)cc4)CC3)CC2)cc1    26.9
16  O=C(Cn1ccc2ccccc2c1=O)NCCC(=O)N1CCN(c2cccc(C(F)(F)F)c2)CC1     5.2
17                  CCn1c(=S)ccc2ccc(OC)cc21    12.9
18  Cc1ccc(-c2noc(CCC(=O)NC3CCN(Cc4ccccc4)CC3)n2)cc1    33.3
19    CC(C)(C)OC(=O)N1CCC(C(=O)N2CCCCCC2)CC1    16.1
20           O=C(NCCCN1CCOCC1)c1cc2c(s1)CSC2    13.1
21                       Nc1ccc(-n2ccnc2)cc1    37.6
22      O=S1(=O)C=C(Sc2nc3ccccc3s2)c2ccccc21     7.7
23  CCOC(=O)c1c(C)n(C)c2ccc(OCC(O)CNC(CC)CO)cc12 (stereo not drawn)    58.6

====

test: LNCaP granularity increase inducers, single-point recheck – cell-based, side scatter shift, flow cytometry, confirmation (AID 1069); settings: LNCaP differentiation, 4 d, side scatter shift, at 10 µM, stronger effect = higher value;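 also: LNCaP human prostate cancer cells in low-serum medium with charcoal-stripped FBS; percent of cells with raised granularity gated so DMSO controls show 10%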
endpoint-label: side scatter shift (%)

> print(dat)
                                    compound  result
 1  Cc1ccc2[nH]c(=O)c3cc(C(=O)N(C)Cc4ccco4)sc3c2c1    11.1
 2  CC1CCCCN1CCNC(=O)c1cc2c(-c3ccccc3F)nn(C)c2s1 (stereo unspecified)    19.9
 3  COc1ccc(-c2cc3c(=O)n(CC(=O)NC4CCN(Cc5ccccc5)CC4)ncn3n2)cc1     5.5
 4           O=C(NCCCN1CCOCC1)c1cc2c(s1)CSC2     9.2
 5  COc1ccc2cc3cc(C(=O)Nc4ccccc4N4CCN(C)CC4)oc3nc2c1    42.7
 6  CCCS(=O)(=O)N1CCCC(C(=O)NCCCN2CCN(c3cccc(Cl)c3)CC2)C1 (stereo unspecified)    6.55
 7  COc1ccc(-c2cc(C(F)(F)F)nc(N3CCN(c4ccc(F)cc4)CC3)n2)cc1OC    3.05
 8  COc1ccc(N2CCN(c3oc(COc4ccccc4Cl)nc3C#N)CC2)cc1     9.2
 9  COc1cccc(-c2cc(C(=O)N3CCCc4ccccc43)no2)c1     1.8
10  Cn1c(C(=O)NCCCN2CCN(c3ccccc3F)CC2)cc2c(=O)[nH]c3ccccc3c21    11.1
11  N=c1n(CCN2CCCCC2)c2ccccc2n1CC(O)COc1ccccc1 (stereo unspecified)    50.2
12  Cc1oc(-c2cccc(Cl)c2)nc1CN1CCC(C(=O)NCCCN2CCCC2=O)CC1    2.65
13        O=C(c1ccc(COCC(F)(F)F)o1)N1CCCCCC1    4.95
14      Cc1cccc(-c2nsc(SCC(=O)Nc3nccs3)n2)c1     6.2
15  CCOC(=O)C1=C(C)Nc2nc(SC)nn2C1c1ccc(C(=O)OC)cc1 (stereo unspecified)    7.15
16  Cc1ccccc1-c1nc(CN2CCC(C(=O)NCC3CCCO3)CC2)c(C)o1 (stereo unspecified)     7.1
17  Cc1ccc(-c2noc(CCC(=O)NC3CCN(Cc4ccccc4)CC3)n2)cc1     4.5
18  Cn1c(=O)cc(SCC(=O)NCCCN2CCN(c3ccccc3F)CC2)c2ccccc21    12.8
19  Cn1nc(-c2ccc(Cl)cc2)c2cc(C(=O)NCCCN3CCCC3)sc21    66.5
20  Cc1ccc2c(c1)c1c(n2CC(O)Cn2c(C)nc3ccccc32)/C(=N\O)CCC1 (stereo unspecified)    10.1
21  CCN(CC)CCCNC(=O)c1cc2c(-c3ccc(Cl)cc3)nn(C)c2s1    81.5

====

assay: LNCaP granularity increase inducers, single-point recheck – cell-based, side scatter shift, flow cytometry, confirmation (AID 1069); details: LNCaP differentiation, 4 d, side scatter shift, at 10 µM, stronger effect = higher value;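 also: LNCaP human prostate cancer cells in low-serum medium with charcoal-stripped FBS; percent of cells with raised granularity gated so DMSO controls show 10%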
Listed below: side scatter shift values for each entry.
endpoint-label: side scatter shift (%)

> print(dat)
                                    molecule      endpoint.label  result
 1  COC(=O)c1ccccc1S(=O)(=O)N(Cc1cc2cc3c(cc2[nH]c1=O)OCO3)C1CCCCC1  side scatter shift    8.05
 2  COc1ccc(CCNC(=O)C2CCCN(Cc3nc(-c4cccc(Cl)c4)oc3C)C2)cc1OC (stereo not given)  side scatter shift    3.85
 3  Cc1cccc(-c2nc(CN3CCCC(C(=O)NC4CCCC4)C3)c(C)o2)c1 (stereo not given)  side scatter shift     8.5
 4  Cc1oc(-c2cccc(Cl)c2)nc1CN1CCCC(C(=O)NCc2ccco2)C1 (stereo not given)  side scatter shift    5.55
 5          c1ccc(OCCCn2nnc(-c3cccnc3)n2)cc1  side scatter shift     3.1
 6  CCc1ccc(-c2nc(CN3CCCC(C(=O)O)C3)c(C)o2)cc1 (stereo not given)  side scatter shift       9
 7            O=c1cc(-c2ccccc2)[nH]c2ccccc12  side scatter shift    9.15
 8  COCCCN(C(=O)Nc1ccccc1)C(C)c1ccncc1 (stereo not given)  side scatter shift     2.8
 9  O=C(NCCCN1CCN(c2ccc(F)cc2)CC1)c1cccc(N2CCCC2=O)c1  side scatter shift    13.7
10  Cc1ccnc(NC(=O)CCC(=O)N(CC(=O)NC2CCCCC2)c2cccc(C)c2C)c1  side scatter shift    6.85

====

assay: LNCaP granularity increase inducers, single-point recheck – cell-based, side scatter shift, flow cytometry, confirmation (AID 1069); conditions: LNCaP differentiation, 4 d, at 100 µM, stronger effect = higher value;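 also: LNCaP human prostate cancer cells in low-serum medium with charcoal-stripped FBS; percent of cells with raised granularity gated so DMSO controls show 10%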
Kindly return t if reported side scatter shift is no lower than 20%; return f if it is lower.

> print(dat)
                                    compound  cat
 1  COc1ccc(-c2cc(C(F)(F)F)nc(N3CCN(C)CC3)n2)cc1    t
 2  CCCc1ccc(Oc2cn[nH]c2-c2ccc(O)c(C)c2O)cc1    t
 3  CC(C)N1CCC2(CC1)N=C(c1ccc3c(c1)OCO3)CC(c1cc(Cl)ccc1O)N2 (stereo not given)    t
 4  COc1ccc(N2CCN(CCCNC(=O)c3cc4sccc4n3C)CC2)cc1    t
 5             CCOc1nc(-c2ccccc2O)nc2ccccc12    f
 6  CC1CCCCN1CCNC(=O)c1cc2c(-c3ccccc3F)nn(C)c2s1 (stereo not given)    t
 7  CCOC(=O)N1CCN(S(=O)(=O)c2ccc(C(=O)Nc3nc4ccccc4s3)cc2)CC1    f
 8  Cc1nn(Cc2ccc(F)cc2)c(C)c1NC(=O)c1cc(-c2ccc3c(c2)OCO3)on1    f
 9  Cc1oc(-c2ccc(Cl)cc2)nc1CN1CCC(C(=O)N2CCc3ccccc3C2)CC1    t
10       Cc1ccccc1Cn1cnc2c(cnn2C(C)(C)C)c1=O    f

Data origin, for the record: PubChem BioAssay AID1069
